Origin of values: patent US12522597B2

# Test system: MDR1
# methodSummary: MDCK-MDR1 permeability assay (BBB penetration potential)
# Format: in vitro ADME
# conditionDescription: dog, MDCK-MDR1, pH 7.4, MDCK-MDR1: Papp A-B
Measured Papp A→B at 120 min, 5 μM values are reported for all entries that follow.

compound	Papp A→B at 120 min, 5 μM (×10⁻⁶ cm/s)
Oc1cc(-c2ccnnc2)ccc1-c1ccc(O[C@@H]2C[C@H]3CCC[C@H](N3)[C@@H]2F)nn1 (single isomer, unassigned)	2.75
Oc1cc2cnccc2cc1-c1ccc(O[C@H]2C[C@@H]3CCC[C@@H](N3)[C@H]2F)nn1 (single isomer, unassigned)	9.2
CN(C)C(=O)c1cc2cc(O)c(-c3ccc(O[C@H]4C[C@]5(C)CCC[C@@](C)(N5)[C@H]4F)nn3)cc2o1 (single isomer, unassigned)	3.84
Oc1cc(-c2ccccn2)ccc1-c1ccc(O[C@H]2C[C@@H]3CCC[C@@H](N3)[C@H]2F)nn1 (single isomer, unassigned)	6.32
Cn1cc(-c2cc(O)c(-c3ccc(O[C@H]4C[C@@H]5CCC[C@@H](N5)[C@H]4F)nn3)cc2F)cn1 (single isomer, unassigned)	3.26
COc1cc(-c2ccc(-c3ccc(O[C@H]4C[C@]5(C)CC[C@@](C)(N5)[C@H]4F)nn3)c(O)c2)cnn1 (single isomer, unassigned)	6.79

###

# Tested on: MDR1
# methodSummary: MDCK-MDR1 permeability assay (BBB penetration potential)
# Assay type: in vitro ADME
# conditionDescription: dog, MDCK-MDR1, pH 7.4, MDCK-MDR1: Papp A-B
observationType: Papp A→B at 120 min, 5 μM (×10⁻⁶ cm/s)

compound	observationType	valueReported
COc1cc(-c2ccc(-c3ccc(O[C@@H]4C[C@H]5CCC[C@H](N5)[C@@H]4F)nn3)c(O)c2)cnn1 (single isomer, unassigned)	Papp A→B at 120 min, 5 μM	3.83
Oc1cc2cnccc2cc1-c1ccc(O[C@@H]2C[C@H]3CCC[C@H](N3)[C@@H]2F)nn1 (single isomer, unassigned)	Papp A→B at 120 min, 5 μM	7.47
Cn1cc(-c2cc(O)c(-c3ccc(O[C@@H]4C[C@H]5CCC[C@H](N5)[C@@H]4F)nn3)cc2Cl)cn1 (single isomer, unassigned)	Papp A→B at 120 min, 5 μM	3.51

###

Let's look at some compounds and their measured MDCK-MDR1: % Recov B-A.
# Test system: MDR1-MDCK cell monolayers
# methodSummary: MDCK-MDR1 permeability assay (BBB penetration potential)
# Type: in vitro ADME
# conditionDescription: dog, MDCK-MDR1, 120 min, 5 μM, pH 7.4
observationType: MDCK-MDR1: % Recov B-A (%)

compound	observationType	unitsText	valueReported
Oc1cc(-c2ccc3nccn3c2)ccc1-c1ccc(O[C@H]2C[C@@H]3CCC[C@@H](N3)[C@H]2F)nn1 (single isomer, unassigned) [84-ENT2]	MDCK-MDR1: % Recov B-A	%	73
Cn1cc(-c2ccc(-c3ccc(O[C@@H]4C[C@@H]5CCC[C@@H](N5)[C@H]4F)nn3)c(O)c2)cn1 (single isomer, unassigned) [121-ENT2]	MDCK-MDR1: % Recov B-A	%	90
C[C@]12CC[C@](C)(N1)[C@H](F)[C@H](Oc1ccc(-c3ccc(-n4cccn4)cc3O)nn1)C2 (single isomer, unassigned) [153-ENT1]	MDCK-MDR1: % Recov B-A	%	76

###

# Test system: MDR1
# methodSummary: MDCK-MDR1 permeability assay (BBB penetration potential)
# Format: in vitro ADME
# conditionDescription: dog, MDCK-MDR1, pH 7.4, MDCK-MDR1: Papp A-B
# Procedure: Each determination is performed in duplicate. […] Analytical conditions are outlined below.
observationType: Papp A→B at 120 min, 5 μM (×10⁻⁶ cm/s)

compound	subjectOfTest	valueReported
Cc1cc(-c2ccc(-c3ccc(O[C@H]4C[C@@H]5CCC[C@@H](N5)[C@H]4F)nn3)c(O)c2)cnn1 (single isomer, unassigned) [90-ENT2]	MDR1	1.92
Cn1cnc(-c2ccc(-c3ccc(O[C@@H]4C[C@@]5(C)CCC[C@](C)(N5)[C@@H]4F)nn3)c(O)c2)cc1=O (single isomer, unassigned) [139-ENT1]	MDR1	2.36
N#Cc1ccc(-c2ccc(O[C@@H]3C[C@H]4CC[C@H](N4)[C@@H]3F)nn2)c(O)c1 (single isomer, unassigned) [111-ENT1]	MDR1	15.6

###

# Tested on: mHTT protein
# methodSummary: mHTT protein assay (2B7-MW1, Mesoscale Discovery)
# Format: cell-based, human
# conditionDescription: GM04724 (CAG 70/20) Huntington's disease patient lymphoblast cells, 48 hours, 2B7-MW1 MSD; read-out: HTT Potency - Protein EC50 mHTT (average)
# Experimental: Compounds are tested on GM04724 (CAG 70/20) Huntington's disease patient lymphoblast cells at doses ranging from 10 μM to 0.6 nM. 4,500 cells/well are seeded in 384 well plates. […] Compounds are incubated for 48 hours, mHTT protein levels are assessed by the 2B7-MW1 assay via Mesoscale Discovery (MSD) as previously reported (Macdonald et al., 2014). […] The viability readout is carried out by CTG according to the manufacturer's instructions.
Reported EC50 values follow for various compounds

compound	subjectOfTest	EC50
Cn1ccc2cc(O)c(-c3ccc(O[C@H]4C[C@@H]5CCC[C@@H](N5)[C@H]4F)nn3)cc2c1=O (single isomer, unassigned)	mHTT protein	16 to 50 nM
Cn1cc(-c2ccc(-c3ccc(O[C@H]4C[C@@H]5CCC[C@@H](N5)[C@H]4F)nn3)c(O)c2)c(F)n1 (single isomer, unassigned)	mHTT protein	16 to 50 nM
Oc1cc2cccnc2cc1-c1ccc(O[C@H]2C[C@@H]3CCC[C@@H](N3)[C@H]2F)nn1 (single isomer, unassigned)	mHTT protein	101 to 500 nM
C[C@@]12CC[C@@](C)(N1)[C@@H](F)[C@@H](Oc1ccc(-c3ccc(C#N)cc3O)nn1)C2 (single isomer, unassigned)	mHTT protein	501 to 10000 nM
Cn1cc(-c2ccc(-c3ccc(O[C@H]4C[C@]5(C)CCC[C@@](C)(N5)[C@H]4F)nn3)c(O)c2)cn1 (single isomer, unassigned)	mHTT protein	16 to 50 nM
Oc1cc(-c2ccccn2)ccc1-c1ccc(O[C@@H]2C[C@H]3CCC[C@H](N3)[C@@H]2F)nn1 (single isomer, unassigned)	mHTT protein	101 to 500 nM
Cc1cnc(-c2ccc(-c3ccc(O[C@@H]4C[C@H]5CCC[C@H](N5)[C@@H]4F)nn3)c(O)c2)cn1 (single isomer, unassigned)	mHTT protein	101 to 500 nM
Cn1cc(-c2cc(O)c(-c3ccc(O[C@@H]4C[C@H]5CCC[C@H](N5)[C@@H]4F)nn3)c(F)c2)cn1 (single isomer, unassigned)	mHTT protein	51 to 100 nM
Oc1cc2ccncc2cc1-c1ccc(O[C@H]2C[C@@H]3CCC[C@@H](N3)[C@H]2F)nn1 (single isomer, unassigned)	mHTT protein	501 to 10000 nM
Cn1ccc(-c2ccc(-c3ccc(O[C@@H]4C[C@H]5CCC[C@H](N5)[C@@H]4F)nn3)c(O)c2)cc1=O (single isomer, unassigned)	mHTT protein	0.01 to 15 nM
Oc1cc(-c2cn[nH]c2)ccc1-c1ccc(O[C@@H]2C[C@H]3CCC[C@H](N3)[C@@H]2F)nn1 (single isomer, unassigned)	mHTT protein	0.01 to 15 nM
Cc1nc(-c2ccc(-c3ccc(O[C@H]4C[C@@H]5CCC[C@@H](N5)[C@H]4F)nn3)c(O)c2)co1 (single isomer, unassigned)	mHTT protein	101 to 500 nM
C[C@]12CC[C@](C)(N1)[C@H](F)[C@H](Oc1ccc(-c3ccc(-c4cn[nH]c4)cc3O)nn1)C2 (single isomer, unassigned)	mHTT protein	0.01 to 15 nM
Cc1ccc(-c2ccc(-c3ccc(O[C@@H]4C[C@H]5CCC[C@H](N5)[C@@H]4F)nn3)c(O)c2)o1 (single isomer, unassigned)	mHTT protein	101 to 500 nM
Cc1cc(-c2ccc(-c3ccc(O[C@H]4C[C@@H]5CCC[C@@H](N5)[C@H]4F)nn3)c(O)c2)co1 (single isomer, unassigned)	mHTT protein	101 to 500 nM
Cc1nc(-c2ccc(-c3ccc(O[C@@H]4C[C@H]5CCC[C@H](N5)[C@@H]4F)nn3)c(O)c2)cs1 (single isomer, unassigned)	mHTT protein	16 to 50 nM
Cn1cnc(-c2ccc(-c3ccc(O[C@@H]4C[C@H]5CCC[C@H](N5)[C@@H]4F)nn3)c(O)c2)cc1=O (single isomer, unassigned)	mHTT protein	51 to 100 nM
Cn1ccc2cc(-c3ccc(O[C@@H]4C[C@@]5(C)CC[C@](C)(N5)[C@@H]4F)nn3)c(O)cc2c1=O (single isomer, unassigned)	mHTT protein	16 to 50 nM
Cn1ccc(-c2ccc(-c3ccc(O[C@H]4C[C@@H]5CCC[C@@H](N5)[C@H]4F)nn3)c(O)c2)nc1=O (single isomer, unassigned)	mHTT protein	101 to 500 nM
C[C@@]12CCC[C@@](C)(N1)[C@@H](F)[C@@H](Oc1ccc(-c3ccc(C#N)cc3O)nn1)C2 (single isomer, unassigned)	mHTT protein	501 to 10000 nM
Oc1cc(-c2cn[nH]c2)ccc1-c1ccc(O[C@@H]2C[C@H]3CCC[C@H](N3)[C@H]2F)nn1 (single isomer, unassigned)	mHTT protein	16 to 50 nM
Cn1cc(-c2cc(O)c(-c3ccc(O[C@H]4C[C@@H]5CCC[C@@H](N5)[C@H]4F)nn3)c(F)c2)cn1 (single isomer, unassigned)	mHTT protein	101 to 500 nM
Oc1cc(-c2cc[nH]n2)ccc1-c1ccc(O[C@@H]2C[C@H]3CCC[C@H](N3)[C@@H]2F)nn1 (single isomer, unassigned)	mHTT protein	51 to 100 nM
